# measurement protocol: chemical genetic growth profiling, strain panel (AID 1159580);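 further: tested at 20 µM; growth read once vehicle control cultures reached saturation at 30 °C; 1 = growth at the plate median or of vehicle wells; lower values mean less growth of the strain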
# settings: S. cerevisiae deletion strains, growth OD, locus YDR101C, strain arx1, hits give low values
About 2,000 (36%) of roughly 5,500 compounds were called active. Another 18% or so got no clear call; they are omitted. The list shows a part of the results.
# normalized growth per record follows
Give only the figure.

Worked examples follow.
CC(=O)OC1CC[C@@]2(C)C(CCC3C2CC[C@]2(C)C(C4=CC(=O)OC4)C(OC(C)=O)CC32O)C1 (stereo not given in full) : 1.01
CCc1ccc2c(O)c3c(cc2c1C(=O)OC)C(=O)c1c(O)ccc(O)c1C3=O : 1.02
Cc1cc(N)c2ccccc2[n+]1CCCCCCCCCC[n+]1c(C)cc(N)c2ccccc21 : 0.0626
C[C@]12CC[C@H](O)C[C@H]1CCC1C2CC[C@]2(C)[C@@H](C3=CC(=O)OC3)[C@@H](O)C[C@]12O (stereo not given in full) : 1

Next up:
[in] Please report the recorded normalized growth for COC1=CC(=O)C=C(OC)C1=O .
[out] 0.984
